Test system: Meloidogyne incognita
Experiment: Fall nematicidal field test on squash
Settings: 2 kg ai/ha, squash
Assay Endpoint: RW43 root weight at 43 days after treatment

>  <Smiles Str>
c1ccc(-c2cnc(-c3cccs3)o2)cc1

>  <Observed Result>
16.4

$$$$
>  <Smiles Str>
Brc1ccc(-c2cnc(-c3cccs3)o2)cc1

>  <Observed Result>
13.0

$$$$
>  <Smiles Str>
CNC(=O)O/N=C(\SC)C(=O)N(C)C

>  <Observed Result>
14.3

$$$$
>  <Smiles Str>
Clc1ccc(-c2nnc(-c3cccs3)o2)cc1

>  <Observed Result>
13.2

$$$$

----------
The following compounds are listed with their measured EC50 values.
System: C. elegans
Assay: Three day C. elegans well assay
Format: in vivo
Settings: Caenorhabditis elegans, 48 h; L1 larvae, two days of exposure; read-out: EC50 L1 2D

>  <Smiles Str>
Cc1cc(F)ccc1-c1noc(-c2ccco2)n1

>  <Study System>
C. elegans

>  <EC50>
0.4 µg/mL

$$$$
>  <Smiles Str>
Fc1cc(Br)ccc1-c1noc(-c2cccs2)n1

>  <Study System>
C. elegans

>  <EC50>
0.4 µg/mL

$$$$
>  <Smiles Str>
Fc1cc(Cl)ccc1-c1cnc(-c2cccs2)o1

>  <Study System>
C. elegans

>  <EC50>
0.4 µg/mL

$$$$
>  <Smiles Str>
Fc1ccc(-c2noc(-c3ccco3)n2)c(F)c1

>  <Study System>
C. elegans

>  <EC50>
0.4 µg/mL

$$$$
>  <Smiles Str>
Clc1ccc(-c2nsc(-c3cccs3)n2)cc1

>  <Study System>
C. elegans

>  <EC50>
0.4 µg/mL

$$$$
>  <Smiles Str>
Cc1cc(Cl)ccc1-c1nsc(-c2ccco2)n1

>  <Study System>
C. elegans

>  <EC50>
1.6 µg/mL

$$$$
>  <Smiles Str>
Cc1cc(Cl)ccc1-c1noc(-c2cccs2)n1

>  <Study System>
C. elegans

>  <EC50>
0.4 µg/mL

$$$$
>  <Smiles Str>
Clc1ccccc1-c1cnc(-c2cccs2)o1

>  <Study System>
C. elegans

>  <EC50>
1.6 µg/mL

$$$$
>  <Smiles Str>
Cc1cc(Br)ccc1-c1nsc(-c2ccco2)n1

>  <Study System>
C. elegans

>  <EC50>
0.4 µg/mL

$$$$
>  <Smiles Str>
Clc1cc(-c2noc(-c3cccs3)n2)ccc1Br

>  <Study System>
C. elegans

>  <EC50>
0.4 µg/mL

$$$$
>  <Smiles Str>
Brc1ccccc1-c1cnc(-c2cccs2)o1

>  <Study System>
C. elegans

>  <EC50>
1.6 µg/mL

$$$$
>  <Smiles Str>
Clc1cc(-c2noc(-c3ccco3)n2)ccc1Br

>  <Study System>
C. elegans

>  <EC50>
0.4 µg/mL

$$$$
>  <Smiles Str>
Clc1ccc(-c2nsc(-c3ccco3)n2)cc1

>  <Study System>
C. elegans

>  <EC50>
0.4 µg/mL

$$$$
>  <Smiles Str>
Fc1cc(Cl)ccc1-c1noc(-c2ccco2)n1

>  <Study System>
C. elegans

>  <EC50>
0.4 µg/mL

$$$$
>  <Smiles Str>
Cc1cc(Br)ccc1-c1noc(-c2ccco2)n1

>  <Study System>
C. elegans

>  <EC50>
0.4 µg/mL

$$$$
>  <Smiles Str>
Cc1cc(Br)ccc1-c1noc(-c2cccs2)n1

>  <Study System>
C. elegans

>  <EC50>
0.4 µg/mL

$$$$
>  <Smiles Str>
Clc1ccccc1-c1cnc(-c2ccco2)o1

>  <Study System>
C. elegans

>  <EC50>
1.6 µg/mL

$$$$

----------
System: Meloidogyne incognita
Experiment: M. incognita miniaturized greenhouse assay on cucumber seedlings
Type: in vivo
Settings: 1 ppm; Table 1C test a
Marks after values point to notes of the source that are not given here.

>  <Smiles Str>
CNC(=O)O/N=C(\SC)C(=O)N(C)C

>  <1 ppm gall rating>
1.33

$$$$
>  <Smiles Str>
Brc1ccc(-c2cnc(-c3cccs3)o2)cc1

>  <1 ppm gall rating>
1 (1=6-20%)

$$$$
>  <Smiles Str>
c1ccc(-c2noc(-c3cccs3)n2)cc1

>  <1 ppm gall rating>
0 (0=0-5%)

$$$$
>  <Smiles Str>
Cc1occc1-c1nc(-c2ccc(Cl)cc2)no1

>  <1 ppm gall rating>
1 ^a (1=6-20%)

$$$$
>  <Smiles Str>
COc1ccc(-c2noc(-c3ccoc3C)n2)cc1

>  <1 ppm gall rating>
1 ^a (1=6-20%)

$$$$

----------
Format: in vivo
Settings: 500 mg/kg oral, three female mice, observed up to 14 days
Assay Endpoint: acute oral toxicity: mortality and signs

>  <Compound>
Clc1ccc(-c2nsc(-c3ccco3)n2)c(Cl)c1 [compound 5960]

>  <Observed Result>
all animals survived

$$$$
>  <Compound>
Fc1ccc(-c2cnc(-c3cccs3)o2)cc1 [compound 4775]

>  <Observed Result>
all animals survived

$$$$

----------
System: C. elegans
Assay: Three day C. elegans well assay
Assay type: in vivo
Conditions: Caenorhabditis elegans, 72 h; L4 larvae, three days; effects on the second generation larvae; read-out: EC50 L4 3D (F1)
Assay Endpoint: EC50 (µg/mL)

>  <Compound>
Cc1cc(F)ccc1-c1noc(-c2cccs2)n1 [compound 5845]

>  <Unit Of Measurement>
µg/mL

>  <Observed Result>
25

$$$$
>  <Compound>
Cc1cc(Br)ccc1-c1noc(-c2cccs2)n1 [compound 5824]

>  <Unit Of Measurement>
µg/mL

>  <Observed Result>
1.6

$$$$
>  <Compound>
Clc1cc(-c2noc(-c3cccs3)n2)ccc1Br [compound 5820]

>  <Unit Of Measurement>
µg/mL

>  <Observed Result>
6.3

$$$$
>  <Compound>
Cc1cc(Cl)ccc1-c1noc(-c2cccs2)n1 [compound 5822]

>  <Unit Of Measurement>
µg/mL

>  <Observed Result>
1.6

$$$$
>  <Compound>
Fc1ccc(-c2noc(-c3cccs3)n2)c(F)c1 [compound 5847]

>  <Unit Of Measurement>
µg/mL

>  <Observed Result>
1.6

$$$$
>  <Compound>
Clc1cc(-c2noc(-c3ccco3)n2)ccc1Br [compound 5821]

>  <Unit Of Measurement>
µg/mL

>  <Observed Result>
0.4

$$$$
>  <Compound>
Fc1cc(Cl)ccc1-c1noc(-c2ccco2)n1 [compound 5861]

>  <Unit Of Measurement>
µg/mL

>  <Observed Result>
1.6

$$$$
>  <Compound>
Cc1cc(Cl)ccc1-c1noc(-c2ccco2)n1 [compound 5823]

>  <Unit Of Measurement>
µg/mL

>  <Observed Result>
0.4

$$$$
>  <Compound>
Cc1cc(Br)ccc1-c1noc(-c2ccco2)n1 [compound 5825]

>  <Unit Of Measurement>
µg/mL

>  <Observed Result>
1.6

$$$$
>  <Compound>
Clc1ccccc1-c1cnc(-c2cccs2)o1 [compound 5826]

>  <Unit Of Measurement>
µg/mL

>  <Observed Result>
6.3

$$$$
>  <Compound>
Fc1cc(Br)ccc1-c1noc(-c2ccco2)n1 [compound 5850]

>  <Unit Of Measurement>
µg/mL

>  <Observed Result>
1.6

$$$$
>  <Compound>
Cc1cc(F)ccc1-c1noc(-c2ccco2)n1 [compound 5846]

>  <Unit Of Measurement>
µg/mL

>  <Observed Result>
1.6

$$$$
>  <Compound>
Brc1ccccc1-c1cnc(-c2cccs2)o1 [compound 5827]

>  <Unit Of Measurement>
µg/mL

>  <Observed Result>
6.3

$$$$
>  <Compound>
Fc1cc(Cl)ccc1-c1noc(-c2cccs2)n1 [compound 5860]

>  <Unit Of Measurement>
µg/mL

>  <Observed Result>
1.6

$$$$
>  <Compound>
Fc1cc(Br)ccc1-c1noc(-c2cccs2)n1 [compound 5848]

>  <Unit Of Measurement>
µg/mL

>  <Observed Result>
1.6

$$$$
>  <Compound>
Fc1ccc(-c2noc(-c3ccco3)n2)c(F)c1 [compound 5849]

>  <Unit Of Measurement>
µg/mL

>  <Observed Result>
6.3

$$$$

----------
The following molecules are listed with their measured RW28 root weight at 28 days after treatment values.
System: Meloidogyne incognita
Assay: Fall nematicidal field test on squash
Conditions: 2 kg ai/ha, squash
Assay Endpoint: RW28 root weight at 28 days after treatment

>  <Smiles Str>
Clc1ccc(-c2nnc(-c3cccs3)o2)cc1

>  <Observed Result>
6.4

$$$$
>  <Smiles Str>
CNC(=O)O/N=C(\SC)C(=O)N(C)C

>  <Observed Result>
5.6

$$$$
>  <Smiles Str>
Brc1ccc(-c2cnc(-c3cccs3)o2)cc1

>  <Observed Result>
7.5

$$$$
>  <Smiles Str>
c1ccc(-c2cnc(-c3cccs3)o2)cc1

>  <Observed Result>
5.3

$$$$
